Attribution: patent US10710978B2

Listed here: items and their measured inhibition (10 μM).
Tested on: IKKe, TBK1
Assay: KiNativ assay
Format: binding
Details: H929 live cell
Quick note: give the figure in %, leave out the unit.

Name the reported inhibition (10 μM) value associated with the molecule `Nc1ncc(-c2cccc([N+](=O)[O-])c2F)cc1-c1ccc2c(c1)CCNC2=O`
21.2

Name the reported inhibition (10 μM) value associated with the molecule `CN(C1CC1)S(=O)(=O)c1ccc(-c2cnc(N)c(-c3ccc4c(c3)CCNC4=O)c2)c(F)c1`
−14.8

Name the reported inhibition (10 μM) value associated with the molecule `Nc1ncc(-c2ccc(NS(=O)(=O)C3CC3)cc2F)cc1-c1ccc2c(c1)CCNC2=O`
26.7

Name the reported inhibition (10 μM) value associated with the molecule `Nc1ncc(-c2cccc3ncsc23)cc1-c1ccc2c(c1)CCNC2=O`
−9.9

Name the reported inhibition (10 μM) value associated with the molecule `Nc1ncc(-c2ccc(NS(=O)(=O)C3CC3)cc2OC2CCCCC2)cc1-c1ccc2c(c1)CCNC2=O`
81.8

Name the reported inhibition (10 μM) value associated with the molecule `COc1cc(NS(=O)(=O)C2CC2)ccc1-c1cnc(N)c(-c2ccc3c(c2)CCNC3=O)c1`
33.9

====

Target: SRPK1 (Homo sapiens (Human), UniProt Q96SB4)
Sequence (Q96SB4 whole entry): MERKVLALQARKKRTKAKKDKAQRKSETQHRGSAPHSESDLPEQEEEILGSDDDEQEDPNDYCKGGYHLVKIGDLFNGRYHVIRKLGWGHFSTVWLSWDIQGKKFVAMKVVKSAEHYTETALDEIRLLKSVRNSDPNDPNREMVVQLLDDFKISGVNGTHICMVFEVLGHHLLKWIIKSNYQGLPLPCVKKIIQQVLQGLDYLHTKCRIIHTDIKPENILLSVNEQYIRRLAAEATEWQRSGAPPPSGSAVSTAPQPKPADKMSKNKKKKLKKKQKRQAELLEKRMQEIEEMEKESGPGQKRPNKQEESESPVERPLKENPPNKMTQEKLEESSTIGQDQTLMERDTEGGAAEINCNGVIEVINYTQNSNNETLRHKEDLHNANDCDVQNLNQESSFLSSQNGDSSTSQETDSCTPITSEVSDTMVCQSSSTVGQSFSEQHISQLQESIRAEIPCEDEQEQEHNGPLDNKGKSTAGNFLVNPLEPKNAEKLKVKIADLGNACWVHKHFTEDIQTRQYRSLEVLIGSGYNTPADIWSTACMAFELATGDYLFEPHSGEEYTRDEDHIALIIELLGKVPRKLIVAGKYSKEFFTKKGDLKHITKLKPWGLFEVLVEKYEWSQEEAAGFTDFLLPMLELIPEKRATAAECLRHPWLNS
Experiment: KiNativ assay
Format: binding
Conditions: H929 live cell, read-out: inhibition (10 μM)
Listed here: items and their measured inhibition at 10 µM.
Quick note: give the figure in %, leave out the unit.

Completed entries (count: 4):
compound: Nc1ncc(-c2ccc(NS(=O)(=O)C3CC3)cc2OC2CCCCC2)cc1-c1ccc2c(c1)CCNC2=O [Compound I-65]
target-entity: SRPK1 (Homo sapiens (Human), UniProt Q96SB4)
measured: -25.4
--
compound: Nc1ncc(-c2ccc(NS(=O)(=O)C3CC3)cc2F)cc1-c1ccc2c(c1)CCNC2=O [Compound I-51]
target-entity: SRPK1 (Homo sapiens (Human), UniProt Q96SB4)
measured: -11.5
--
compound: CN(C1CC1)S(=O)(=O)c1ccc(-c2cnc(N)c(-c3ccc4c(c3)CCNC4=O)c2)c(F)c1 [Compound I-28]
target-entity: SRPK1 (Homo sapiens (Human), UniProt Q96SB4)
measured: 19.5
--
compound: COc1cc(NS(=O)(=O)C2CC2)ccc1-c1cnc(N)c(-c2ccc3c(c2)CCNC3=O)c1 [Compound I-50]
target-entity: SRPK1 (Homo sapiens (Human), UniProt Q96SB4)
measured: -9.2

Name the reported inhibition at 10 µM value associated with the compound Nc1ncc(-c2cccc([N+](=O)[O-])c2F)cc1-c1ccc2c(c1)CCNC2=O [Compound I-9]
32.8

Name the reported inhibition at 10 µM value associated with the compound Nc1ncc(-c2cccc3ncsc23)cc1-c1ccc2c(c1)CCNC2=O [Compound I-13]
10.8

====

Target: PKD2 (Homo sapiens (Human))
Sequence (Q9BZL6 whole entry): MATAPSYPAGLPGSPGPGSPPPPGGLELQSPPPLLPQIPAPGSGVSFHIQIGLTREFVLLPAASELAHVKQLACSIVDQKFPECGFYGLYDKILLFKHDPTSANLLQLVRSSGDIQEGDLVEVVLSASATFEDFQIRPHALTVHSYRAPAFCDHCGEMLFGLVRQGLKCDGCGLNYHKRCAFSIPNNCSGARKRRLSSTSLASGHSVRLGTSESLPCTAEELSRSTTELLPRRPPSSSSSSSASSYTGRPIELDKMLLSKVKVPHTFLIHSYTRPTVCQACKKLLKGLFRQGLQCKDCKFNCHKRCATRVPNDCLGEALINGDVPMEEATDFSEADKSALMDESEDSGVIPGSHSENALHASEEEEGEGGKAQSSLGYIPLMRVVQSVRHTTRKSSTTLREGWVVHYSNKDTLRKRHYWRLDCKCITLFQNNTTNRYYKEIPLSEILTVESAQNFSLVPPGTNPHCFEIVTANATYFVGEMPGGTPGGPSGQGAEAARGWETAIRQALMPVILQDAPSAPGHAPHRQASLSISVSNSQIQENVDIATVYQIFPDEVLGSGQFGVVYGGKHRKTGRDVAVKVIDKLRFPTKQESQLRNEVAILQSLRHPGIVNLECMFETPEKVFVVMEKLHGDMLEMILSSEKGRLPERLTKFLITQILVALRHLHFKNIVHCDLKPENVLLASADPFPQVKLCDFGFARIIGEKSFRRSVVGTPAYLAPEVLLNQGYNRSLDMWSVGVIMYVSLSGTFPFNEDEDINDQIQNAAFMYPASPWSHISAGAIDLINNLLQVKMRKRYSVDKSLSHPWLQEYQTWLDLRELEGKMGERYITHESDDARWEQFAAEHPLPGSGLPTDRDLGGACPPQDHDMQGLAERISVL
Experiment: KiNativ assay
Assay type: binding
Conditions: H929 live cell, read-out: inhibition (10 μM)
Listed here: items and their measured inhibition at 10 µM.
Quick note: give the figure in %, leave out the unit.

Completed entries (count: 5):
chem-smiles: Nc1ncc(-c2ccc(NS(=O)(=O)C3CC3)cc2F)cc1-c1ccc2c(c1)CCNC2=O
inhibition at 10 µM [%]: 73.2
--
chem-smiles: Nc1ncc(-c2cccc([N+](=O)[O-])c2F)cc1-c1ccc2c(c1)CCNC2=O
inhibition at 10 µM [%]: 46.2
--
chem-smiles: COc1cc(NS(=O)(=O)C2CC2)ccc1-c1cnc(N)c(-c2ccc3c(c2)CCNC3=O)c1
inhibition at 10 µM [%]: 51.5
--
chem-smiles: Nc1ncc(-c2cccc3ncsc23)cc1-c1ccc2c(c1)CCNC2=O
inhibition at 10 µM [%]: 52.1
--
chem-smiles: Nc1ncc(-c2ccc(NS(=O)(=O)C3CC3)cc2OC2CCCCC2)cc1-c1ccc2c(c1)CCNC2=O
inhibition at 10 µM [%]: -33.4

Let us move to another entry and its inhibition at 10 µM.
Name the reported inhibition at 10 µM value associated with the molecule `CN(C1CC1)S(=O)(=O)c1ccc(-c2cnc(N)c(-c3ccc4c(c3)CCNC4=O)c2)c(F)c1`
38.9
